# TARGET: UniProtKB P05067
# TEST_SUMMARY: Th-T (thioflavin-T) assay of Aβ42 aggregation
# Format: biochemical
# CONDITION_PARAMETERS: head suffix _20 (concentration 20); reading M68
Threshold check on Th-T fluorescence of Aβ42 (sheet Fig. 7a), mean of three wells: strictly below 2 is label 1; on or above 2 is label 0.

{"columns": ["COMPOUND", "TARGET", "CATEGORY"],
 "data": [
  ["C=C1CCC2C(C)(CCC=C(C)C)C(O)CCC2(C)C1Cc1c(OC)oc(CO)c(C(=O)OC)c1=O (centres unmarked)", "UniProtKB P05067", "label 1"],
  ["C=C1CCC2C(C)(CCC=C(C)C)C(O)CCC2(C)C1Cc1c(OC)oc(CO)c(C)c1=O (centres unmarked)", "UniProtKB P05067", "label 0"],
  ["C=C1CC[C@@H]2[C@](C)(CC[C@H]3O[C@H](C=C(C)C)C[C@@]23C)[C@@H]1Cc1c(OC)oc(CO)c(C(=O)OC)c1=O", "UniProtKB P05067", "label 1"]
]}

stdin: Does the reported Th-T fluorescence of Aβ42 (sheet Fig. 7a), mean of three wells of the following compound sit strictly below 2? `C=C1CC[C@@H]2[C@](C)(CC[C@H]3O[C@H](C=C(C)C)C[C@@]23C)[C@@H]1Cc1c(OC)oc(CO)c(C)c1=O`
stdout: label 0

----------
# TEST_SUMMARY: cytotoxicity in Drosophila l(2)mbn cells
# Format: cell-based
# CONDITION_PARAMETERS: Drosophila, l(2)mbn cells (larval blood cell-derived), 0.2 µM, replicate 2, relative to DMSO 1%, read-out: % viability, viability 2
# Method: We screened the DDPs on the Drosophila assay system for cytotoxicity, inhibitory activity of innate immune signalling and insecticidal activity. The cytotoxicity of the DDPs was evaluated using two cell lines, embryonic macrophage-derived DL1 cells[58]–[60] and larval blood cell-derived l(2)mbn cells, and their IC50 values are listed in Supplementary Table 23.
OBSERVATION_TYPE: viability at 0.2 µM (%)
Record the value in %, omitting the unit from your answer.

Example entries and their recorded answers appear below.
{"columns": ["COMPOUND", "OBSERVATION_TYPE", "UNIT_DESCRIPTOR", "VALUE_MEASURED"],
 "data": [
  ["C=C1CC[C@@H]2[C@](C)(CC[C@H]3O[C@H](C=C(C)C)C[C@@]23C)[C@@H]1Cc1c(OC)oc(CO)c(C)c1=O [Compound 20]", "viability at 0.2 µM", "%", 112],
  ["C=C1CCC2C(C)(CC(=O)C=C(C)C)C(O)CCC2(C)C1Cc1c(OC)oc(CO)c(C)c1=O (stereo not shown) [Compound 19]", "viability at 0.2 µM", "%", 120],
  ["C=C1CC[C@H]2[C@]3(C)C[C@H](C=C(C)C)O[C@H]3CC[C@]2(C)[C@@H]1Cc1c(O)c(C)c(C)oc1=O [Compound 6, subglutinol B]", "viability at 0.2 µM", "%", 117],
  ["C=C1CC[C@H]2[C@]3(C)C[C@H](C=C(C)C)O[C@H]3CC[C@]2(C)[C@@H]1Cc1c(OC)oc(C)c(C)c1=O [Compound 24]", "viability at 0.2 µM", "%", 130],
  ["C=C1CCC2C3(C)CC(C=C(C)C)OC3CCC2(C)C1Cc1c(OC)oc(C)c(C)c1=O (stereo not shown) [Compound 23]", "viability at 0.2 µM", "%", 141],
  ["C=C1CCC2C(C)(CCC=C(C)C)C(O)CCC2(C)C1Cc1c(OC)oc(C)c(C(=O)OC)c1=O (stereo not shown) [Compound 14]", "viability at 0.2 µM", "%", 147]
]}

// switching to the query compound
stdin: Given C=C1CC[C@H]2[C@]3(C)C[C@H](C=C(C)C)O[C@H]3CC[C@]2(C)[C@@H]1Cc1c(OC)oc(CO)c(C)c1=O [Compound 18] , state its recorded viability at 0.2 µM.
stdout: 115

----------
Each entry below carries its reported Th-T assay signal, mean of three wells (Fig. 7a).
# TARGET: UniProtKB P05067
# TEST_SUMMARY: Th-T (thioflavin-T) assay of Aβ42 aggregation
# Assay type: biochemical
# CONDITION_PARAMETERS: column suffix _10; reading M11
Please give only the number in your answer, with no unit.

// below: answered molecules
{"columns": ["MOLECULE", "TARGET", "VALUE_MEASURED"],
 "data": [
  ["C=C1CC[C@@H]2[C@](C)(CC[C@H]3O[C@H](C=C(C)C)C[C@@]23C)[C@@H]1Cc1c(OC)oc(CO)c(C)c1=O [Compound 20]", "UniProtKB P05067", 0.7204],
  ["C=C1CCC2C(C)(CCC=C(C)C)C(O)CCC2(C)C1Cc1c(OC)oc(C)c(C(=O)OC)c1=O (centres unmarked) [Compound 14]", "UniProtKB P05067", 0.4498],
  ["C=C1CC[C@@H]2[C@](C)(CC[C@H]3O[C@H](C=C(C)C)C[C@@]23C)[C@@H]1Cc1c(OC)oc(CO)c(C(=O)OC)c1=O [Compound 21]", "UniProtKB P05067", 0.2174],
  ["C=C1CCC2C(C)(CCC=C(C)C)C(O)CCC2(C)C1Cc1c(OC)oc(CO)c(C)c1=O (centres unmarked) [Compound 12]", "UniProtKB P05067", 0.5656]
]}

stdin: Field request: Th-T assay signal, mean of three wells (Fig. 7a) | item: C=C1CCC2C(C)(CCC=C(C)C)C(O)CCC2(C)C1Cc1c(OC)oc(CO)c(C(=O)OC)c1=O (centres unmarked) [Compound 13]
stdout: 0.2291

----------
# TARGET: Aβ42 (Homo sapiens, UniProt P05067)
# Sequence (P05067 672-713): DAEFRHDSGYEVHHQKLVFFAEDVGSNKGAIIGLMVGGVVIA
# TEST_SUMMARY: Th-T (thioflavin-T) assay of Aβ42 aggregation
# Type: biochemical
# CONDITION_PARAMETERS: Aβ42 aggregation time course, reading M135
Parameter: Th-T fluorescence, mean of three wells. Scope: all listed entries.
// print number alone

Examples from the recorded data:
{"columns": ["MOLECULE", "OBSERVATION_TYPE", "VALUE_MEASURED"],
 "data": [
  ["C=C1CCC2C(C)(CC(=O)C=C(C)C)C(O)CCC2(C)C1Cc1c(OC)oc(CO)c(C)c1=O (stereo not shown) [Compound 19]", "Th-T fluorescence, mean of three wells", 3.587],
  ["C=C1CCC2C3(C)CC(C=C(C)C)OC3CCC2(C)C1Cc1c(OC)oc(C)c(C)c1=O (stereo not shown) [Compound 23]", "Th-T fluorescence, mean of three wells", 3.785],
  ["C=C1CCC2C(C)(CCC=C(C)C)C(=O)CCC2(C)C1Cc1c(O)c(C)c(C)oc1=O (stereo not shown) [Compound 8]", "Th-T fluorescence, mean of three wells", 2.191]
]}

Field: next molecule
stdin: If you can, please state the reported Th-T fluorescence, mean of three wells value of C=C1CC[C@@H]2[C@](C)(CC[C@H]3O[C@H](C=C(C)C)C[C@@]23C)[C@@H]1Cc1c(O)c(C)c(C)oc1=O [Compound 10, higginsianin A] .
stdout: 3.001

----------
# TARGET: Aβ42 (Homo sapiens)
# TEST_SUMMARY: Th-T (thioflavin-T) assay of Aβ42 aggregation
# Format: biochemical
# CONDITION_PARAMETERS: column suffix _50; reading M13
Overview of recorded Th-T assay signal, mean of three wells (Fig. 7a) for various compounds
Respond numerically, and do not add a unit to the figure.

Please review the entries below; each comes with its answer.
{"columns": ["COMPOUND", "VALUE_MEASURED"],
 "data": [
  ["C=C1CCC2C(C)(CCC=C(C)C)C(O)CCC2(C)C1Cc1c(OC)oc(C)c(C(=O)OC)c1=O (centres unmarked)", 0.4713],
  ["C=C1CCC2C(C)(CCC=C(C)C)C(O)CCC2(C)C1Cc1c(OC)oc(CO)c(C)c1=O (centres unmarked)", 1.841],
  ["C=C1CC[C@@H]2[C@](C)(CC[C@H]3O[C@H](C=C(C)C)C[C@@]23C)[C@@H]1Cc1c(OC)oc(CO)c(C)c1=O", 2.0174]
]}

stdin: State the recorded Th-T assay signal, mean of three wells (Fig. 7a) for this entry: `C=C1CC[C@@H]2[C@](C)(CC[C@H]3O[C@H](C=C(C)C)C[C@@]23C)[C@@H]1Cc1c(OC)oc(CO)c(C(=O)OC)c1=O`
stdout: 0.2085

stdin: C=C1CCC2C(C)(CCC=C(C)C)C(O)CCC2(C)C1Cc1c(OC)oc(CO)c(C(=O)OC)c1=O (centres unmarked) ?
stdout: 0.1648

----------
In this section we review reported Th-T fluorescence, mean of three wells (Fig. 7a) values for a set of molecules.
# TARGET: Aβ42 (Homo sapiens, UniProt P05067)
# TEST_SUMMARY: Th-T (thioflavin-T) assay of Aβ42 aggregation
# Type: biochemical
# CONDITION_PARAMETERS: reading M110; compound at 20 (head suffix _20)
The response must contain the number and no unit.

Worked examples follow.
{"columns": ["MOLECULE", "TARGET", "VALUE_MEASURED"],
 "data": [
  ["C=C1CC[C@@H]2[C@](C)(CC[C@H]3O[C@H](C=C(C)C)C[C@@]23C)[C@@H]1Cc1c(OC)oc(CO)c(C)c1=O [Compound 20]", "Aβ42 (Homo sapiens, UniProt P05067)", 3.23],
  ["C=C1CC[C@@H]2[C@](C)(CC[C@H]3O[C@H](C=C(C)C)C[C@@]23C)[C@@H]1Cc1c(OC)oc(CO)c(C(=O)OC)c1=O [Compound 21]", "Aβ42 (Homo sapiens, UniProt P05067)", 0.9358],
  ["C=C1CCC2C(C)(CCC=C(C)C)C(O)CCC2(C)C1Cc1c(OC)oc(CO)c(C)c1=O (centres unmarked) [Compound 12]", "Aβ42 (Homo sapiens, UniProt P05067)", 2.0943],
  ["C=C1CCC2C(C)(CCC=C(C)C)C(O)CCC2(C)C1Cc1c(OC)oc(CO)c(C(=O)OC)c1=O (centres unmarked) [Compound 13]", "Aβ42 (Homo sapiens, UniProt P05067)", 1.043]
]}

Now, please, on to the next molecule.
stdin: What value of Th-T fluorescence, mean of three wells (Fig. 7a) has been reported for the following molecule? C=C1CCC2C(C)(CCC=C(C)C)C(O)CCC2(C)C1Cc1c(OC)oc(C)c(C(=O)OC)c1=O (centres unmarked) [Compound 14]
stdout: 1.691

From: paper PMC7156458
